Molecular target: both the full-length protein and ΔN-thorProfilin
Assay: NMR titration; 1H-15N TROSY-HSQC; fixed thorProfilin or ΔN-thorProfilin (200 μM), increasing polyproline … (0, 5, 7 mM in the legend); 25 mM Tris-HCl pH 6.8, 150 mM NaCl; KD from fits of chemical shifts of a few residues
Recorded metric: Kd

Quickly give me recorded Kd for PPPAPPLPAAQ [polyproline from VASP (…)] 200 to 500 µM
